Target desc: dopamine D1 receptor (Homo sapiens, UniProt P21728)
Sequence (P21728 whole entry): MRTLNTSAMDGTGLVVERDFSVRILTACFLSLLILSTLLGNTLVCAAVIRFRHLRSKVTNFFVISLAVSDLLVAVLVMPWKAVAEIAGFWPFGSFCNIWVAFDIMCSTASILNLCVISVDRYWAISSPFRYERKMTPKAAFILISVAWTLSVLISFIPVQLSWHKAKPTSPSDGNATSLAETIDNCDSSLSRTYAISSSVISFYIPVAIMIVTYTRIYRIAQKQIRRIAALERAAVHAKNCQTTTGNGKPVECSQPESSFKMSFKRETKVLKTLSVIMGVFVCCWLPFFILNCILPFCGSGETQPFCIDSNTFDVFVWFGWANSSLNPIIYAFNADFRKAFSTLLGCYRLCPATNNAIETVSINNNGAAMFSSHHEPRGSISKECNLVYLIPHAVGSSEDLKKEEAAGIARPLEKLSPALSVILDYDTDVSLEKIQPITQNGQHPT
Measurement protocol: cAMP HTRF potentiation assay (in the presence of dopamine)
Applied conditions: potentiation of cAMP with [EC20] of dopamine (1.1 nM); LMtk (Ltk−) mouse fibroblast cells expressing the dopamine D1 receptor
Quantity name: EC50 (nM)

[[record]]
molecule = "C[C@H]1[C@H]2CCC[C@@H]([C@H](O)C(F)(F)F)[C@@H]2CCN1C(=O)Cc1c(Cl)ccc2nnc(Cl)n12"
quantity_name = "EC50"
test_result = 63.1


a. C[C@H]1[C@H]2CCCC([C@@H](O)C(F)(F)F)[C@@H]2CCN1C(=O)Cc1c(Cl)ccc2c1c(Cl)nn2C (single isomer, unassigned) [Example 8-A]
b. CC(O)c1ncc(Cl)c(CC(=O)N2CC[C@@H]3[C@H](CCC[C@H]3[C@](C)(O)C(F)F)[C@@H]2C)c1Cl (single isomer, unassigned) [Example 18-B]
Which gives the smaller EC50 number: a or b ? // respond with label for picked entry
a

Hello, the source for this data is patent US20240043400A1, in case you need it.
